Give CC50 for every item shown.
- testMethodNotes: Cytotoxicity against mock-infected human MT4 cells by MTT assay
- Format: cell-based

Q: Please list CC50 recorded for the compound CC(Cc1ccccc1)OC(=S)Nc1ccc([N+](=O)[O-])cc1 (racemic)
Ans: 39 µM

Q: Please list CC50 recorded for the compound CC(COc1ccccc1)OC(=S)Nc1ccc([N+](=O)[O-])cc1 (racemic)
Ans: > 100 µM

Q: Please list CC50 recorded for the compound Cc1ccc(NC(=S)OCCc2ccccc2)cc1
Ans: > 100 µM

Q: Please list CC50 recorded for the compound CC(COC(=S)Nc1ccc(Cl)c([N+](=O)[O-])c1)c1ccccc1 (racemic)
Ans: 41 µM

Q: Please list CC50 recorded for the compound CC(COC(=S)Nc1ccc(Cl)c(Cl)c1)c1ccccc1 (racemic)
Ans: 44 µM
